Tested on: 786-0 renal
Assay: NCI tumour cell line growth inhibition, 48 h
Record form. Attribute: TGI. Fill in for each entry.

Consider the compound COC1OC(C(C)O)C2OC(C)(C)OC12 (stereo unspecified) . State its measured TGI.
> 100 µM

Consider the compound CN(C)CC1=Nc2cccc3cccc(c23)N1 . State its measured TGI.
25.8 µM

Consider the compound CCN1C(=O)CS/C1=N\NC(=O)CSc1nc2ccccc2c(=O)n1CC . State its measured TGI.
> 100 µM

Consider the compound COC1C(O)C(C)OC(O[C@@H]2C[C@H]3CC[C@@H]4[C@H](CC[C@]5(C)[C@@H](C6=CC(=O)OC6)CC[C@]45O)[C@@]3(C)[C@H](O)C2)C1O (stereo partly specified) . State its measured TGI.
> 100 µM

Consider the compound Cc1ccc(-n2cc(-c3ccc(Cl)cc3)c(C#N)c2N)cc1 . State its measured TGI.
29.1 µM

Consider the compound COc1ccc(/C=N\O[Si](C)(C)C(C)(C)C)cc1O[Si](C)(C)C(C)(C)C . State its measured TGI.
30.8 µM

Consider the compound Cn1c2ccccc2c2[nH]c3ccccc3c(=O)c21 . State its measured TGI.
> 100 µM

Consider the compound O=c1[nH]nc(-c2ccccc2)c2c(-c3ccccc3)onc12 . State its measured TGI.
> 100 µM

Consider the compound COC1C(OC(N)=O)C(O)C(Oc2ccc3c(O)c(NC(=O)c4ccc(O)c(CC=C(C)C)c4)c(=O)oc3c2C)OC1(C)C (stereo unspecified) . State its measured TGI.
> 100 µM

Consider the compound CCOC(=O)/C=C1\Oc2ccccc2C1(C)O (stereo unspecified) . State its measured TGI.
> 100 µM

Consider the compound CCOC(=O)c1cn(CC)c2cc3c(cc2c1=O)SCS3 . State its measured TGI.
> 100 µM

----------
Record form. Attribute: TGI. Fill in for each entry.
Test system: DMS 273 small cell lung
Test: NCI tumour cell line growth inhibition, 48 h

Consider the molecule COc1ccc(/C=C(\Cl)c2ccc(OC)cc2)cc1 . State its measured TGI.
> 100 µM

Consider the molecule O=c1[nH]c2c(c3ccccc13)CCc1ccccc1-2 . State its measured TGI.
> 100 µM

Consider the molecule Cc1cc(C)nc(NS(=O)(=O)c2ccc(NC(=O)c3cccc4c(N)c5ccccc5nc34)cc2)n1 . State its measured TGI.
> 100 µM

----------
Test system: 786-0 renal
Test: NCI tumour cell line growth inhibition, 48 h
measurement name: GI50

Consider the molecule CN(C)N=Nc1nn(C(=O)Nc2ccc(Cc3ccccc3)cc2)c2ccccc12 . State its measured GI50.
5.25 µM

Consider the molecule CC(=O)n1c(-c2ccc(Cl)c(Cl)c2)cn(-c2ccc(Cl)cc2)c1=O . State its measured GI50.
13.4 µM

Consider the molecule O=C1COCCN1c1ccc(NCc2cn(C(=O)c3ccc(Cl)cc3)c3ccccc23)cc1 . State its measured GI50.
2.7 µM

Consider the molecule Nc1ccccc1C#C/C=C\C#Cc1ccccc1F . State its measured GI50.
9.28 µM

Consider the molecule COc1ccc2c(c1)C=C1CSCC3=Cc4cc(OC)ccc4OC13O2 . State its measured GI50.
0.821 µM

----------
Record form. Attribute: TGI. Fill in for each entry.
Test system: SK-MEL-2 melanoma
Assay: NCI tumour cell line growth inhibition, 48 h

Consider the compound NS(=O)(=O)c1ccc(N2N=C(c3cccs3)CC2c2ccccc2O)cc1 (stereo unspecified) . State its measured TGI.
5.16 µM

Consider the compound CC(=O)n1c(-c2ccc(Cl)c(Cl)c2)cn(-c2ccc(Cl)cc2)c1=O . State its measured TGI.
69.2 µM

Consider the compound CC1=NN(C(=O)c2nn(-c3ccc(Cl)cc3)cc2O)C(=O)C1 . State its measured TGI.
> 100 µM

Consider the compound Cc1ccc(S(=O)(=O)Nc2cc(Sc3ccccc3)c(O)c3ccccc23)cc1 . State its measured TGI.
16 µM

Consider the compound c1ccc(/C(=N\Nc2ccc3ccccc3n2)c2ccccn2)cc1 . State its measured TGI.
7.4 µM

Consider the compound CC(=O)O/N=C/c1cc2c(cc1Br)OCO2 . State its measured TGI.
> 349 µM

Consider the compound O=C(CC(=O)C1CCOC1=O)C(=O)Nc1ccc(Cl)cc1 (stereo unspecified) . State its measured TGI.
> 100 µM

Consider the compound COC(=O)Nc1nc2ccc(S(=O)(=O)c3ccc(NC(=O)Nc4cc(C(F)(F)F)ccc4F)cc3)cc2[nH]1 . State its measured TGI.
> 25 µM

Consider the compound CN(C)c1ncnc2c1ccn2C1OC(CO)C(O)C1O (stereo unspecified) . State its measured TGI.
> 100 µM

Consider the compound COc1cc2nncc(SCc3ccc(Cl)c(Cl)c3)c2cc1OC . State its measured TGI.
> 100 µM

Consider the compound NCCC1([N+](=O)[O-])CCNCC1 . State its measured TGI.
> 100 µM

Reference source for all entries: PubChem BioAssay (NCI)
